biological target: L-lactate dehydrogenase (Plasmodium falciparum (isolate CDC / Honduras)) (UniProt Q27743); assay: PfLDH activity inhibition – cell lysate, 3D7 strain, counter-screen for P. falciparum growth inhibition project (AID 2304);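 further: 0% = vehicle and 100% = reference inhibitor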; details: P. falciparum 3D7 crude extract, LDH APAD/NBT absorbance; at 2 µM; hits give high values
Sequence (Q27743 whole entry, looked up): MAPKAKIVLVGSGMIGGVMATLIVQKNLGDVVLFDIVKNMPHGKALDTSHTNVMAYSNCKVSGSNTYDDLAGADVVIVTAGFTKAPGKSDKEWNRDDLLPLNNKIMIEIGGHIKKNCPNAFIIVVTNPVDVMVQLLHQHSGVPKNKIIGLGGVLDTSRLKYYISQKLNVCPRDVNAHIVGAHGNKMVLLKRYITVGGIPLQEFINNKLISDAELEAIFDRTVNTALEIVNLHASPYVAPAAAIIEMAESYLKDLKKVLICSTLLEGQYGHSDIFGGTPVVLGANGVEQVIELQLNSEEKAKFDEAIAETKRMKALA
PROPERTY_NAME: inhibition (%)
Give bare numbers, in %.

MOLECULE	ENDPOINT_UNIT	MEASURED_NUMBER
Cc1ccc2ncc(Cl)c(CCN3CCC(NCc4ccc5c(n4)NC(=O)CS5)CC3)c2n1	%	-3
COCCn1c(-c2cccc(Cl)c2)nn(-c2ccc([N+](=O)[O-])cc2Cl)c1=S	%	-2
COc1ccc(CNc2nc(NCc3ccc(C(F)(F)F)cc3)c3cc(OC)c(OC)cc3n2)cc1OC	%	-3
c1ccc(C(c2cccs2)N2CCN(Cc3ccc(OCCCN4CCCCC4)cc3)CC2)cc1 (stereo not given)	%	2

Continue with the molecule presented below.
Give me measured inhibition, please, for this molecule: O=C(NCc1ccccc1)c1nn(CCCN2CCC(N3CCCC3)CC2)cc1-c1ccc(Cl)c(Cl)c1
0

* * *

biological target: Calcium-dependent protein kinase 1 (Plasmodium falciparum (isolate 3D7)); experiment: PfCDPK1 kinase inhibitors, biochemical, TCAMS library (AID 1159585); details: recombinant PfCDPK1, Kinase-Glo ATP depletion luminescence;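 further: inhibitors leave more ATP so luminescence rises with inhibition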
Results with a measured potency or affinity are listed apart. Active and inactive are the calls of the source. No cut-off is given here; in the data, nearly all actives have IC50 up to about 0.98 µM.
PROPERTY_NAME: outcome

COMPOUND	outcome
COc1cc(Nc2nccc(Nc3ccc4c(C)[nH]nc4c3)n2)cc2ccccc12	inactive
O=C(/C=C/c1ccc(Cl)c(Cl)c1)NCCCCCN1CCCC(CNC(=O)/C=C/c2ccccc2)C1 (centres undefined)	inactive
COc1ccc2nccc([C@@H](O)CN3CCC(NC(=O)C(=Cc4ccc(Cl)cc4Cl)c4ccc(-c5ccccc5)cc4)CC3)c2c1	inactive
COc1ccc(C=CC(=O)NC(=O)c2ccccc2OC(=O)c2ccccc2)cc1OC	inactive
O=[N+]([O-])c1cccc(NC(=S)N2CCCN(Cc3ccc(C(F)(F)F)cc3)CC2)c1	inactive

Go through the items and report each one's outcome.
1. Nc1oc2c(CN3CCCCCC3)c(O)ccc2c(=O)c1-c1nc2ccccc2s1
2. CC[C@H](C)CNC(=O)c1ccc(-c2cccc(CN3CCC(N4CCCC4)CC3)c2)nc1

1: inactive; 2: inactive

* * *

assay: human hepatoma cell viability loss – ATP luminescence, cytotoxicity control for P. falciparum antimalarial project, primary screen (AID 2303); conditions: HepG2 viability, 24-48 h, at 10 µM;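 further: 0% = DMSO wells and 100% = digitonin-killed cells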
Calls of active or inactive are those of the source.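 How the source made its calls: active means inhibition above 50%; inactive means the rest.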
API: response.call in active, inactive

Below, 6 molecules whose answers are already recorded.
MOLECULE	ASSIGNED_LABEL
O=C(/C=C/c1ccc(Cl)c(Cl)c1)NCCCCCN1CCC(NC(=O)Nc2ccc([N+](=O)[O-])cc2)CC1	inactive
O=C(Nc1ccc(Cl)c(C(F)(F)F)c1)NC1CCN(CCCCCNC(=O)[C@@H]2C[C@H]2c2ccc(Cl)c(Cl)c2)CC1	active
CCc1ccc(-n2c(NC(=O)c3ccccc3)nc3ccc(S(=O)(=O)NC(C)C(C)C)cc32)cc1 (centres undefined)	inactive
CCCCCCCN1CC[C@@H](CCCc2ccnc3ccc(OCC4CCCNC4)cc23)[C@@H](CC)C1 (some centres undefined)	active
CNC(=O)C1Cc2c([nH]c3ccc(Cl)cc23)C2(CCN(CCc3ccccc3)CC2)N1 (centres undefined)	inactive
COc1cc2nc(-c3ccccc3)nc(N3CCN(CC(=O)N4CCCC4)CC3)c2cc1OC	inactive

Which outcome did this test record for the molecule Nc1nc(N)c2c(ccc3c2ccn3Cc2ccc(F)cc2)n1 ?
active

Which outcome did this test record for the molecule COCCn1c(SC(C)C(=O)Nc2cc(C(F)(F)F)ccc2Cl)nc2ccccc2c1=O (centres undefined) ?
inactive

Which outcome did this test record for the molecule Nc1nccc2ccc(-c3ccc4nccn4c3)cc12 ?
inactive
